In what follows, each item is paired with its Ki for Coagulation factor X (Homo sapiens).

[
  {
    "Mol smiles": "Cc1ccc(NS(=O)(=O)Cc2ccccc2)c(=O)n1CC(=O)NCc1ccc(C(=N)N)s1",
    "Operator symbol": "=",
    "Ki, nM": 96.4
  },
  {
    "Mol smiles": "COc1cccc(S(=O)(=O)Nc2cccn(CC(=O)NCc3ccc(C(=N)N)cc3)c2=O)c1",
    "Operator symbol": "=",
    "Ki, nM": 153
  },
  {
    "Mol smiles": "COC(=O)c1ccc(F)cc1CS(=O)(=O)Nc1ccc(C)n(CC(=O)N[C@H](CCCN=C(N)N)C(=O)O)c1=O",
    "Operator symbol": "=",
    "Ki, nM": 1810
  },
  {
    "Mol smiles": "COc1cccc(S(=O)(=O)Nc2cccn(CC(=O)NCc3ccc(C(=N)N)cc3OC)c2=O)c1",
    "Operator symbol": "=",
    "Ki, nM": 76.8
  },
  {
    "Mol smiles": "Cc1ccc(NS(=O)(=O)Cc2ccccc2F)c(=O)n1CC(=O)N[C@H](CCCNC(=N)N)C(=O)O",
    "Operator symbol": "=",
    "Ki, nM": 674
  },
  {
    "Mol smiles": "COc1cccc(S(=O)(=O)Nc2cccn(CC(=O)NCc3ccc(C(=N)N)cc3F)c2=O)c1",
    "Operator symbol": "=",
    "Ki, nM": 249
  },
  {
    "Mol smiles": "COc1cccc(S(=O)(=O)Nc2cccn(CC(=O)NCc3nc(C(=N)N)cs3)c2=O)c1",
    "Operator symbol": "=",
    "Ki, nM": 179
  },
  {
    "Mol smiles": "Cc1ccc(NS(=O)(=O)Cc2ccccc2)c(=O)n1CC(=O)NCc1nc(CN)cs1",
    "Operator symbol": ">",
    "Ki, nM": 338
  }
]

###

# System under test: Serine protease 1 (Homo sapiens, UniProt P07477)
# Sequence (P07477 whole entry): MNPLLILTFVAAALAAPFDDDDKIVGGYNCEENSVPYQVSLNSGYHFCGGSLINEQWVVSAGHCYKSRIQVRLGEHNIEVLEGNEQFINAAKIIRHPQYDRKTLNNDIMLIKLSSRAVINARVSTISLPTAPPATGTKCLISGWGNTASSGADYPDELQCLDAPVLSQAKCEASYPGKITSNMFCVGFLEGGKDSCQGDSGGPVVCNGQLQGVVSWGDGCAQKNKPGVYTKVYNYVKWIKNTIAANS
Measure name: Ki (nM)

[
  {
    "Mol smiles": "Cc1cnc(NCCc2ccccc2)c(=O)n1CC(=O)NCc1ccc(C(=N)N)s1",
    "Operator symbol": "=",
    "Experimental result": 4.4
  },
  {
    "Mol smiles": "COc1cccc(S(=O)(=O)Nc2cccn(CC(=O)NCc3nc(C(=N)N)cs3)c2=O)c1",
    "Operator symbol": ">",
    "Experimental result": 168
  },
  {
    "Mol smiles": "COc1cccc(S(=O)(=O)Nc2cccn(CC(=O)NCc3ccc(C(=N)N)cc3)c2=O)c1",
    "Operator symbol": "=",
    "Experimental result": 18.7
  }
]

###

# System under test: Prothrombin (Homo sapiens, UniProt P00734)
pKi: −log10 of the molar value.

[
  {
    "Compound": "Cc1cnc(NCCc2ccccc2)c(=O)n1CC(=O)NC[C@@H]1CNC(N)=N[C@@H]1C",
    "pKi": 8.49
  },
  {
    "Compound": "Cc1nc(N)ncc1CNC(=O)Cn1c(C)cnc(NCCc2ccc3c(c2)CCO3)c1=O",
    "pKi": 6.49
  },
  {
    "Compound": "Cc1cnc(NCCc2ccccc2)c(=O)n1CC(=O)NCc1ccc(C(=N)N)s1",
    "pKi": 9.92
  },
  {
    "Compound": "COC(=O)c1ccc(F)cc1CS(=O)(=O)Nc1ccc(C)n(CC(=O)N[C@H](CCCN=C(N)N)C(=O)O)c1=O",
    "pKi": 10.00
  },
  {
    "Compound": "COc1cccc(S(=O)(=O)Nc2cccn(CC(=O)NCc3ccc(C(=N)N)cc3OC)c2=O)c1",
    "pKi": 8.80
  },
  {
    "Compound": "Cc1ccc(NS(=O)(=O)Cc2ccccc2)c(=O)n1CC(=O)NCc1ccc(C(=N)N)s1",
    "pKi": 10.00
  },
  {
    "Compound": "Cc1cnc(NCCc2ccccc2)c(=O)n1CC(=O)NCC1CN=C(N)NC1 (stereo unspecified)",
    "pKi": 8.72
  },
  {
    "Compound": "Cc1ccc(NS(=O)(=O)Cc2ccccc2)c(=O)n1CC(=O)NCc1cnc(N)cn1",
    "pKi": 6.80
  },
  {
    "Compound": "COc1cccc(S(=O)(=O)Nc2cccn(CC(=O)NCc3nc(C(=N)N)cs3)c2=O)c1",
    "pKi": 8.23
  },
  {
    "Compound": "Cc1ccc(NS(=O)(=O)Cc2ccccc2)c(=O)n1CC(=O)NCc1ccc(C(=N)N)c(F)c1",
    "pKi": 8.44
  },
  {
    "Compound": "Cc1nc(N)ncc1CNC(=O)Cn1c(C)cnc(NCCc2ccccc2)c1=O",
    "pKi": 6.71
  },
  {
    "Compound": "Cc1ccc(NS(=O)(=O)Cc2ccccc2)c(=O)n1CC(=O)NCc1cnc(N)nc1",
    "pKi": 6.34
  },
  {
    "Compound": "Cc1cnc(NCC2(c3ccc(Cl)cc3)CCC2)c(=O)n1CC(=O)NCc1cnc(N)cn1",
    "pKi": 8.26
  },
  {
    "Compound": "Cc1ccc(NS(=O)(=O)Cc2ccccc2F)c(=O)n1CC(=O)N[C@H](CCCNC(=N)N)C(=O)O",
    "pKi": 9.85
  },
  {
    "Compound": "Cc1ccc(NS(=O)(=O)Cc2ccccc2)c(=O)n1CC(=O)NCC1CN=C(N)NC1 (stereo unspecified)",
    "pKi": 9.00
  },
  {
    "Compound": "Cc1nc(N)ncc1CNC(=O)Cn1c(C)cnc(NCC(F)(F)c2ccccc2)c1=O",
    "pKi": 6.85
  }
]
